Measured TGI accompanies every entry in the list below.
# Tested on: BT-549 breast
# Assay remarks: NCI tumour cell line growth inhibition, 48 h

{"Compound": "CN(CCCCCl)P(=O)(OCc1ccc([N+](=O)[O-])o1)OCC1OC(n2cc([N+](=O)[O-])c(=O)[nH]c2=O)CC1O (stereo not given)", "Target or system": "BT-549 breast", "Result operator": ">", "TGI, µM": 100}
{"Compound": "COc1ccc2c(c1)/C(=N/OC(C)=O)c1c-2c(OC)nc2ccccc12", "Target or system": "BT-549 breast", "Result operator": ">", "TGI, µM": 100}
{"Compound": "CCS(=O)(=O)c1ccc(OC)c(Nc2ncc(-c3cccc(F)c3)o2)c1", "Target or system": "BT-549 breast", "Result operator": ">", "TGI, µM": 25}
{"Compound": "CCN(C(=O)N[C@H](C(=O)N[C@@H](CSC)C(=O)N[C@@H](C)C(=O)OC)C(C)C)c1ccccc1", "Target or system": "BT-549 breast", "Result operator": "=", "TGI, µM": 32.5}
{"Compound": "CCNC(=S)NNC(=O)c1ccccc1Nc1ccccc1C(=O)NNC(=S)NCC", "Target or system": "BT-549 breast", "Result operator": ">", "TGI, µM": 100}
{"Compound": "COc1ccc(-c2[nH]ncc2Nc2cc(OC)c(OC)c(OC)c2)cc1", "Target or system": "BT-549 breast", "Result operator": ">", "TGI, µM": 89.6}
{"Compound": "CCOC(=O)/C=C1/SC(=Nc2ccc(C#N)cc2)N(Cc2ccco2)C1=O", "Target or system": "BT-549 breast", "Result operator": "=", "TGI, µM": 52.6}
{"Compound": "COc1ccc2nc3ccccc3c(NCCNCC(C)O)c2c1 (stereo not given)", "Target or system": "BT-549 breast", "Result operator": "=", "TGI, µM": 5.73}
{"Compound": "Cc1c(C(N)=O)sc2nc(C)n(/N=c3\\scc(-c4ccccc4)n3Cc3ccccc3)c(=O)c12", "Target or system": "BT-549 breast", "Result operator": "=", "TGI, µM": 8.89}
{"Compound": "CN1C(=O)C23CCCC2CC1(c1ccccc1)S3 (stereo not given)", "Target or system": "BT-549 breast", "Result operator": ">", "TGI, µM": 100}

###

# System: SW-620 colon
# Assay remarks: NCI tumour cell line growth inhibition, 48 h

{"Compound": "O=C(N/C(=C\\c1ccc(/C=C(\\NC(=O)c2ccccc2)c2nc3c(O)nc(S)nc3[nH]2)cc1)c1nc2c(O)nc(S)nc2[nH]1)c1ccccc1", "TGI": "> 100 µM"}
{"Compound": "COc1ccc(-c2cc(-c3ccc(Nc4ccnc5cc(Cl)ccc45)cc3)[nH]c(=O)c2C#N)cc1", "TGI": "> 100 µM"}
{"Compound": "CCOC(=O)/C=C1/SC(=Nc2ccc(C#N)cc2)N(Cc2ccco2)C1=O", "TGI": "4.97 µM"}
{"Compound": "CN(CCCCCl)P(=O)(OCc1ccc([N+](=O)[O-])o1)OCC1OC(n2cc([N+](=O)[O-])c(=O)[nH]c2=O)CC1O (stereo not drawn)", "TGI": "> 100 µM"}
{"Compound": "CN(C)c1ccc2[nH]c3c(C(N)=O)cc(=O)c(=O)c=3oc2c1", "TGI": "> 100 µM"}
{"Compound": "COC(=O)C(=O)C(C(=O)OC)C(=O)C(=O)Nc1c(Cl)cc([N+](=O)[O-])cc1Cl (stereo not drawn)", "TGI": "> 100 µM"}
{"Compound": "CNC(=O)c1cc(Oc2ccc(NC(=O)Nc3cc(C(C)(C)C)nn3-c3ccc4ncccc4c3)c(F)c2)ccn1", "TGI": "> 29.6 µM"}
{"Compound": "Cc1ccnc(Nc2[nH]c(C(=O)c3ccc(Cl)cc3)c(N)c2C(=S)Nc2ccccc2)c1", "TGI": "69.6 µM"}
